IC50 by entry:
Molecular target: human HSV DNA polymerase UL30 (Human herpesvirus 1 (strain 17) (HHV-1) (Human herpes simplex virus 1), UniProt P04293)
Test: HSV polymerase biochemical assay (molecular beacon-based)
Give the value, in units of nM, as a plain number.

Consider the following illustrative entries.
CNS(=O)(=O)C1(CN2CCn3c(ccc(C(=O)NCc4ccc(Cl)cc4)c3=O)C2=O)CC1 ... 52.1
N#Cc1ccc(CNC(=O)c2ccc3n(c2=O)CCN(CC2(S(=O)(=O)C4(CO)CC4)CC2)C3=O)cc1F ... 23.5
N#Cc1ccc(CNC(=O)c2ccc3n(c2=O)CCN(CC2(S(=O)(=O)C4CCOCC4)CC2)C3=O)cc1 ... 64.3
N#Cc1ccc(CNC(=O)c2ccc3n(c2=O)CCN(CC2(S(=O)(=O)N4CC(F)(F)C4)CC2)C3=O)cc1F ... 80.6
N#Cc1ccc(CNC(=O)c2ccc3n(c2=O)CCN(CC2(S(=O)(=O)C4(CF)CC4)CC2)C3=O)cc1F ... 27.9

# input compound: N#Cc1ccc(CNC(=O)c2ccc3n(c2=O)CCN(CC2(S(=O)(=O)C4CNC4)CC2)C3=O)cc1F ; wanted: its IC50 285

# input compound: CC(C)(C)S(=O)(=O)C1(CN2CCn3c(ccc(C(=O)NCc4ccc(C#N)c(F)c4)c3=O)C2=O)CC1 ; wanted: its IC50 45.5

# input compound: CS(=O)(=O)C1(CN2CCn3c(ccc(C(=O)NCc4ccc(Cl)cc4)c3=O)C2=O)CCC1 ; wanted: its IC50 2520

# input compound: N#Cc1ccc(CNC(=O)c2ccc3n(c2=O)CCN(CCS(=O)(=O)C2CC2)C3=O)cc1F ; wanted: its IC50 649

# input compound: CS(=O)(=O)CCCN1CCn2c(c(Br)cc(C(=O)NCc3ccc(Cl)cc3)c2=O)C1=O ; wanted: its IC50 1890

# input compound: COCCN1CCn2c(ccc(C(=O)NCc3ccc(Cl)cc3)c2=O)C1=O ; wanted: its IC50 11500

# input compound: N#Cc1ccc(CNC(=O)c2ccc3n(c2=O)CCN(CC2(S(=O)(=O)CC4(C#N)CC4)CC2)C3=O)cc1 ; wanted: its IC50 59.5

# input compound: CN(C1(CN2CCn3c(ccc(C(=O)NCc4ccc(Cl)cc4)c3=O)C2=O)CC1)S(C)(=O)=O ; wanted: its IC50 2680

# input compound: CNc1cc(CNC(=O)c2ccc3n(c2=O)CCN(CC2(S(=O)(=O)C4CC4)CC2)C3=O)ccc1C#N ; wanted: its IC50 51.4

====

Molecular target: human HSV DNA polymerase UL30 (Human herpesvirus 1 (strain 17) (HHV-1) (Human herpes simplex virus 1), UniProt P04293)
Experiment: HSV polymerase biochemical assay (molecular beacon-based)
Experimental readout: pIC50
# pIC50 = -log10(concentration in molar units)

CC(CCO)S(=O)(=O)C1(CN2CCn3c(ccc(C(=O)NCc4ccc(C#N)cc4)c3=O)C2=O)CC1 (stereo not shown) ... 6.98
CS(=O)(=O)N1CCC[C@@H]1CN1CCn2c(ccc(C(=O)NCc3ccc(Cl)cc3)c2=O)C1=O ... 4.70

# input molecule: N#Cc1ccc(CNC(=O)c2ccc3n(c2=O)CCN(CC2(S(=O)(=O)C4CC4(F)F)CC2)C3=O)cc1F (stereo not shown) ; wanted: its pIC50 7.24

# input molecule: O=C(NCc1ccc(Cl)cc1)c1ccc2n(c1=O)CCN(CCN1CCCS1(=O)=O)C2=O ; wanted: its pIC50 6.74

# input molecule: CN(C1(CN2CCn3c(c(F)cc(C(=O)NCc4ccc(Cl)cc4)c3=O)C2=O)CC1)S(C)(=O)=O ; wanted: its pIC50 5.11

# input molecule: CC1(CN2CCn3c(ccc(C(=O)NCc4ccc(Cl)cc4)c3=O)C2=O)COC1 ; wanted: its pIC50 4.50

# input molecule: Cc1cc(C(=O)NCc2ccc(Cl)cc2)c(=O)n2c1C(=O)N(CCN1CCCS1(=O)=O)CC2 ; wanted: its pIC50 6.90
